These entries and their values trace back to patent EP0655439A2.

# ASSAYED_TARGET: GPIIb-IIIa (Homo sapiens, UniProt P05106+P08514)
# Construct: Purified platelet GPIIb-IIIa receptor was prepared as described by Fitzgerald, L.A., et al
# Sequence (P08514 32-887 limits assumed): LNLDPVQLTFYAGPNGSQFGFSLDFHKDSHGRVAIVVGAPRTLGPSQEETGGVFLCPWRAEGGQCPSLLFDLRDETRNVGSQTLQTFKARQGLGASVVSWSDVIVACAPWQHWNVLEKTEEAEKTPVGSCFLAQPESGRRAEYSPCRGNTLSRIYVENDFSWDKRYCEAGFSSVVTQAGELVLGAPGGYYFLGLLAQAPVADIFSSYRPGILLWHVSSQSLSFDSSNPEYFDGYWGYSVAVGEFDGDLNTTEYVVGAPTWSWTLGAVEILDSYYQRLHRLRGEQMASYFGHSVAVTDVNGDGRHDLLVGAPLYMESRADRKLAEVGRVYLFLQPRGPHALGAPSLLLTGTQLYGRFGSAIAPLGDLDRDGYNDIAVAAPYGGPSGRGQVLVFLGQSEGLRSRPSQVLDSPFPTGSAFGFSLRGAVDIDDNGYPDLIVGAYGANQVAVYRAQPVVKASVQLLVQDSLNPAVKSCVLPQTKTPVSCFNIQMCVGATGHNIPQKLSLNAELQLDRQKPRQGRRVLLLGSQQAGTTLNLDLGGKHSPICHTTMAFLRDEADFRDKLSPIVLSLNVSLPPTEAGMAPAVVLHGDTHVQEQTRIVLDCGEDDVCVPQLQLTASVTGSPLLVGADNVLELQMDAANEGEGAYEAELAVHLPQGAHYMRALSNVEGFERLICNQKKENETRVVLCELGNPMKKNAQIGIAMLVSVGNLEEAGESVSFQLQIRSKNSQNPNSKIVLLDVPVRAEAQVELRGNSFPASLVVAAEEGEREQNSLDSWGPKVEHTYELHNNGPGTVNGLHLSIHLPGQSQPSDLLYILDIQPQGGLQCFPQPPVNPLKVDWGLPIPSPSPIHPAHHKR
# Sequence (P08514 891-1039 partner limits assumed): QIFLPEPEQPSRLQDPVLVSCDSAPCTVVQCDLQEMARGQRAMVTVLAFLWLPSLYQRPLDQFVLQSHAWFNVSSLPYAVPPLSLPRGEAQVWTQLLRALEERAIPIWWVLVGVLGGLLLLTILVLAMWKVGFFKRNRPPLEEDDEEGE
# Sequence (P05106 27-788): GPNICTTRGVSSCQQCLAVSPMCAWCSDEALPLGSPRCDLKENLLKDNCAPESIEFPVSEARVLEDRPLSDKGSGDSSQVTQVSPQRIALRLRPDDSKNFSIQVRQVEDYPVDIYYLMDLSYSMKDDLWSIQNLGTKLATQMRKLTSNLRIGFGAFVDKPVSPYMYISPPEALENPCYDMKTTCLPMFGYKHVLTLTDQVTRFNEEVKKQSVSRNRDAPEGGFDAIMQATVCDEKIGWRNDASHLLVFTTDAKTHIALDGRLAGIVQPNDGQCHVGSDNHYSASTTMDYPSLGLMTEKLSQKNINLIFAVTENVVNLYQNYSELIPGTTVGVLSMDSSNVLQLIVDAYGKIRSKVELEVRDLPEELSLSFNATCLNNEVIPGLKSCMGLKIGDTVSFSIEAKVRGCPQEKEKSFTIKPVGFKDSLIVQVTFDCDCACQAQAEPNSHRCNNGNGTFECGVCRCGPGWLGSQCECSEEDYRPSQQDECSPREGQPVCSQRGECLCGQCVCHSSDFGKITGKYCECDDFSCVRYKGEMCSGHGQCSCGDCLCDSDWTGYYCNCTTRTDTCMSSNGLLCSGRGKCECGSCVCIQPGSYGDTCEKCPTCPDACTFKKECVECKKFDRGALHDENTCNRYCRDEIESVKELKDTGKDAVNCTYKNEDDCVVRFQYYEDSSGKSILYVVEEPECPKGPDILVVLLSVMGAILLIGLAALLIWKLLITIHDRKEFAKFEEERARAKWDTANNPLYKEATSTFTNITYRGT
# PROCEDURE_DETAILS: GPIIb-IIIa ELISA assay (inhibition of fibrinogen binding to immobilized receptor)
# CONDITION_PARAMETERS: purified platelet GPIIb-IIIa coated on plates; biotinylated fibrinogen 10 nM; 3 hours at 25 °C
Consider the following compounds and their measured pIC50 readings.
Give only the number. pIC50 is defined as minus log10 of concentration in molar units.

Recorded pIC50 (compound N=C(N)c1ccc2[nH]c(C(=O)NCCOCCCC(=O)O)cc2c1 [Example 12] ): 5.92

Documented pIC50 of CC(CCCCNC(=O)c1cc2cc(C(=N)N)ccc2[nH]1)CC(=O)O (stereo not drawn) [Example 17] : 6.68

###

A collection of compounds and their measured pIC50
# ASSAYED_TARGET: GPIIb-IIIa (Homo sapiens, UniProt P05106+P08514)
# Construct: Purified platelet GPIIb-IIIa receptor was prepared as described by Fitzgerald, L.A., et al
# PROCEDURE_DETAILS: GPIIb-IIIa ELISA assay (inhibition of fibrinogen binding to immobilized receptor)
# CONDITION_PARAMETERS: purified platelet GPIIb-IIIa coated on plates; biotinylated fibrinogen 10 nM; 3 hours at 25 °C
# Protocol: In the following assay, GPllb-Illa is prepared in purified form, by a method such as described by Fitzgerald, L.A., et al., Anal Biochem (1985) 151:159-177,(the disclosure of which is incorporated herein by reference). GPIIb-IIIa is coated onto microtiter plates. […] After incubation, the solution containing the fibrinogen and test material is removed and the level of binding of fibrinogen measured by quantitating bound fibrinogen to GPllb-llla. […]
Kindly note that pIC50 refers to -log10 of the concentration in mol/L and answer with the value alone.

Example results:
N=C(N)c1ccc2[nH]c(C(=O)NCCCCCC(=O)O)cc2c1    4.37
N=C(N)c1ccc2[nH]c(C(=O)NCCCCCCC(=O)O)cc2c1    6.15
N=C(N)c1ccc(COc2ccc3oc(C(=O)NCC(=O)O)cc3c2)cc1    5.47

// CC(CCCCNC(=O)c1cc2cc(C(=N)N)ccc2s1)CC(=O)O (stereo not shown) : pIC50 value = 6.49

// sample NCc1ccc2[nH]c(C(=O)NCCCCCCC(=O)O)cc2c1 , its pIC50 was 5.37

# pIC50 (compound: CCC(CCCCCNC(=O)c1cc2cc(C(=N)N)ccc2[nH]1)C(=O)O (stereo not shown) ) is 4.67

###

# ASSAYED_TARGET: GPIIb-IIIa (Homo sapiens, UniProt P05106+P08514)
# Construct: Purified platelet GPIIb-IIIa receptor was prepared as described by Fitzgerald, L.A., et al
# PROCEDURE_DETAILS: GPIIb-IIIa ELISA assay (inhibition of fibrinogen binding to immobilized receptor)
# CONDITION_PARAMETERS: purified platelet GPIIb-IIIa coated on plates; biotinylated fibrinogen 10 nM; 3 hours at 25 °C
Property: pIC50; scope: individual compounds
# log scale: pIC50 equals minus log10 of the concentration in mol/L

Cn1c(C(=O)NCCCCCCC(=O)O)cc2cc(C(=N)N)ccc21    5.52

Quick note, pIC50 for CC(CCCCNC(=O)c1cc2cc(C(=N)N)ccc2o1)CC(=O)O (stereo not shown) landed at 8.00

The recorded pIC50 for entry CC(CCCCCNC(=O)c1cc2cc(C(=N)N)ccc2[nH]1)C(=O)O (stereo not shown) equals 5.28

// recorded pIC50 for CCCCC(CCCCNC(=O)c1cc2cc(C(=N)N)ccc2[nH]1)CC(=O)O (stereo not shown) : 6.20

pIC50 reading for CN(CCCCCCC(=O)O)C(=O)c1cc2cc(C(=N)N)ccc2[nH]1 : 6.42

The reported pIC50 of the compound N=C(N)c1ccc2sc(C(=O)NCCCCCCC(=O)O)cc2c1 was 6.13

Sure, the documented pIC50 for N=C(N)c1ccc2oc(C(=O)NCCCCCCC(=O)O)cc2c1 is 7.40

###

# ASSAYED_TARGET: GPIIb-IIIa (Homo sapiens, UniProt P05106+P08514)
# Construct: Purified platelet GPIIb-IIIa receptor was prepared as described by Fitzgerald, L.A., et al
# PROCEDURE_DETAILS: GPIIb-IIIa ELISA assay (inhibition of fibrinogen binding to immobilized receptor)
# CONDITION_PARAMETERS: purified platelet GPIIb-IIIa coated on plates; biotinylated fibrinogen 10 nM; 3 hours at 25 °C
QUANTITY_KIND: IC50 (nM)
Your answer should be a plain number; it is taken to be in nM.

CCCCCCC(CCCCNC(=O)c1cc2cc(C(=N)N)ccc2[nH]1)CC(=O)O (stereo not shown)    800
CCCCCCC(CCCCCNC(=O)c1cc2cc(C(=N)N)ccc2[nH]1)C(=O)O (stereo not shown)    19000
N=C(N)c1ccc2[nH]c(C(=O)NCc3ccc(CCC(=O)O)cc3)cc2c1    4450
N=C(N)c1ccc2cc(C(=O)NCCCCCCC(=O)O)[nH]c2c1    130
Cc1c(C(=O)NCCCCCCC(=O)O)[nH]c2ccc(C(=N)N)cc12    2600

The recorded IC50 for entry CCC(CCCCNC(=O)c1cc2cc(C(=N)N)ccc2[nH]1)CC(=O)O (stereo not shown) equals 330
